These entries and their values trace back to paper PMC10058949.

test: in vivo
Design: species or system mice
measurement_setup: female, BALB/c nude, mouse, iv, 20 pmol, total radioactivity, Tumor-to-kidney ratio
assay_metric: tissue to tissue ratio at 168 h
Hey, just send me the number, nothing else.

Data request: Return tissue to tissue ratio at 168 h for the following compound: CCCC[C@@H](C(=O)N[C@@H](CC(=O)O)C(=O)N[C@@H](Cc1cccc2ccccc12)C(N)=O)N(C)C(=O)[C@H](Cc1c[nH]c2ccccc12)NC(=O)CCNC(=O)CC(O)CNC(=O)CC(O)CNC(=O)CN1CCN(CC(=O)O)CCN(CC(=O)O)CCN(CC(=O)O)CC1 (stereo partly shown) [[^177Lu]Lu-2, metal not drawn]
Data returned: 4
